Cited source: patent US8795635B2

Provide the reported Solubility in mineral oil of each item.
assay: physchem

[in] Can you look up the measured Solubility in mineral oil of CCCC(=O)O[C@]1(C(=O)CO)CC[C@H]2[C@@H]3CCC4=CC(=O)CC[C@]4(C)[C@H]3[C@@H](O)C[C@@]21C [Hydrocortisone butyrate] for me?
[out] < 0.01%

[in] Can you look up the measured Solubility in mineral oil of C/C(=C\C(=O)OCCCCCCCCC(=O)O)C[C@@H]1OC[C@H](C[C@@H]2O[C@H]2[C@@H](C)[C@H](C)O)[C@@H](O)[C@H]1O [Mupirocin] for me?
[out] < 0.01%

[in] Can you look up the measured Solubility in mineral oil of CC(=O)[C@H]1CC[C@H]2[C@@H]3CCC4=CC(=O)CC[C@]4(C)[C@H]3CC[C@]12C [Progesterone] for me?
[out] < 0.001%
